- System: Malme-3M
- methodSummary: NCI tumour cell line growth inhibition, 48 h
The source made the active and inactive calls. Rule as the data show it: active = GI50 up to about 1.1 µM and inactive = higher.
Field: GI50. Provide a value for each of the compounds that follow.

Param request: GI50 | system Malme-3M | item CCOCN/C(N)=N\C#N
> 100 µM (inactive)

Param request: GI50 | system Malme-3M | item CN(C)c1n2c3cc([N+](=O)[O-])ccc3[n+]3c(N(C)C)n4ccccc4c3c2c2cccc[n+]12.[O-][Cl+3]([O-])([O-])[O-].[O-][Cl+3]([O-])([O-])[O-]
> 100 µM (inactive)

Param request: GI50 | system Malme-3M | item CN(C)CCNC(=O)c1cccc2c(NC(CCC(N)=O)C(=O)O)c3ccccc3nc12 (stereo not given)
5.56 µM (inactive)

Param request: GI50 | system Malme-3M | item O=C1C=C(C2OC(CO)C(O)C2O)C(=O)N1 (stereo not given)
> 100 µM (inactive)

Param request: GI50 | system Malme-3M | item Nc1cc(C2CCCc3c2[nH]c2ccccc32)ccc1O (stereo not given)
33 µM (inactive)
